Test system: Klebsiella pneumoniae
test description: Antibacterial activity against Klebsiella pneumoniae MTCC 109 after 24 hr by paper disk diffusion method
Type: functional
inhibition zone (IZ) values, listed per item
Give the value in mm but do not write mm after it.

- Cn1c(=O)cc(Oc2nc(NCCc3cccs3)nc(Nc3ccc(C#N)cc3)n2)c2ccccc21: 10
- Cn1c(=O)cc(Oc2nc(Nc3ccc(C#N)cc3)nc(NC3CC3)n2)c2ccccc21: 11
- Cn1c(=O)cc(Oc2nc(NCc3ccccc3)nc(Nc3ccc(C#N)cc3)n2)c2ccccc21: 15
- Cn1c(=O)cc(Oc2nc(Nc3ccc(C#N)cc3)nc(NC3CCCCC3)n2)c2ccccc21: 13

Req: Recall and state the measured inhibition zone (IZ) for COc1ccc2[nH]cc(CCNc3nc(Nc4ccc(C#N)cc4)nc(Oc4cc(=O)n(C)c5ccccc45)n3)c2c1 .
Resp: 10

###

System: Klebsiella pneumoniae
test description: Antibacterial activity against Klebsiella pneumoniae MTCC 109 after 24 hr by agar streak dilution method
Assay type: functional
test parameters: MTCC 109, 24 h
// reported MIC per item
The figure you give is taken to be in µg/mL; do not add the unit.

Before answering, review these 2 worked examples.
- COc1ccc2[nH]cc(CCNc3nc(Nc4ccc(C#N)cc4)nc(Oc4cc(=O)n(C)c5ccccc45)n3)c2c1: 50
- O=C(O)c1cn(C2CC2)c2cc(N3CCNCC3)c(F)cc2c1=O: 1

Shift focus to the following entry.
Req: Quick one: give measured MIC for Cn1c(=O)cc(Oc2nc(NCCc3cccs3)nc(Nc3ccc(C#N)cc3)n2)c2ccccc21
Resp: 50

###

Test system: Bacillus cereus
test description: Antibacterial activity against Bacillus cereus MTCC 619 after 24 hr by paper disk diffusion method; also: test concentration or dose not given here
Assay type: functional
Mark class 0 for inhibition zone (IZ) values under 10 mm, and class 1 for everything at or above.

Look over these answered cases.
- Cn1c(=O)cc(Oc2nc(Nc3ccc(C#N)cc3)nc(NC3CC3)n2)c2ccccc21: class 1
- CCOC(=O)CNc1nc(Nc2ccc(C#N)cc2)nc(Oc2cc(=O)n(C)c3ccccc23)n1: class 0
- Cn1c(=O)cc(Oc2nc(NCCc3cccs3)nc(Nc3ccc(C#N)cc3)n2)c2ccccc21: class 1
- Cn1c(=O)cc(Oc2nc(NCCO)nc(Nc3ccc(C#N)cc3)n2)c2ccccc21: class 0

Req: Does inhibition zone (IZ) meet or surpass 10 mm for Cn1c(=O)cc(Oc2nc(NCCCl)nc(Nc3ccc(C#N)cc3)n2)c2ccccc21 ?
Resp: class 1

Req: Can Cn1c(=O)cc(Oc2nc(NCC(=O)O)nc(Nc3ccc(C#N)cc3)n2)c2ccccc21 be said to have inhibition zone (IZ) at or above 10 mm?
Resp: class 0

Req: For this molecule, is measured inhibition zone (IZ) 10 mm or higher? CNc1nc(Nc2ccc(C#N)cc2)nc(Oc2cc(=O)n(C)c3ccccc23)n1
Resp: class 0

Req: Form field: inhibition zone (IZ) at least 10 mm? Entry: COc1ccc2[nH]cc(CCNc3nc(Nc4ccc(C#N)cc4)nc(Oc4cc(=O)n(C)c5ccccc45)n3)c2c1
Resp: class 1

###

System: Bacillus cereus
test description: Antibacterial activity against Bacillus cereus MTCC 619 after 24 hr by paper disk diffusion method; also: test concentration or dose not given here
Type: functional
Response key: rule met means inhibition zone (IZ) >= 10 mm; rule not met means inhibition zone (IZ) < 10 mm.

• CCNc1nc(Nc2ccc(C#N)cc2)nc(Oc2cc(=O)n(C)c3ccccc23)n1 = rule not met
• CCN(CC)c1nc(Nc2ccc(C#N)cc2)nc(Oc2cc(=O)n(C)c3ccccc23)n1 = rule met
• CC(C)Nc1nc(Nc2ccc(C#N)cc2)nc(Oc2cc(=O)n(C)c3ccccc23)n1 = rule met

Req: Test whether the compound CN(C)c1nc(Nc2ccc(C#N)cc2)nc(Oc2cc(=O)n(C)c3ccccc23)n1 records inhibition zone (IZ) of 10 mm or higher.
Resp: rule met

Req: Textbook exercise: given the entry CCCCNc1nc(Nc2ccc(C#N)cc2)nc(Oc2cc(=O)n(C)c3ccccc23)n1 , state whether its inhibition zone (IZ) is greater than or equal to 10 mm.
Resp: rule not met

###

Tested on: Salmonella typhi
test description: Antibacterial activity against Salmonella enterica subsp. enterica serovar Typhi MTCC 733 after 24 hr by paper disk diffusion method
Assay type: functional
Threshold check on inhibition zone (IZ): at or above 8 mm gives T, strictly below gives F.

Worked examples, 3 compounds total:
- CCCCNc1nc(Nc2ccc(C#N)cc2)nc(Oc2cc(=O)n(C)c3ccccc23)n1: F
- Cn1c(=O)cc(Oc2nc(Nc3ccc(C#N)cc3)nc(NC3CC3)n2)c2ccccc21: F
- Cn1c(=O)cc(Oc2nc(NCc3ccccc3)nc(Nc3ccc(C#N)cc3)n2)c2ccccc21: F

Req: Check if inhibition zone (IZ) >= 8 mm (inclusive). Item: COc1ccc2[nH]cc(CCNc3nc(Nc4ccc(C#N)cc4)nc(Oc4cc(=O)n(C)c5ccccc45)n3)c2c1
Resp: F

Req: Reported inhibition zone (IZ) reaches at least 8 mm for Cn1c(=O)cc(Oc2nc(NCCO)nc(Nc3ccc(C#N)cc3)n2)c2ccccc21 ?
Resp: T

###

System: Klebsiella pneumoniae
test description: Antibacterial activity against Klebsiella pneumoniae MTCC 109 after 24 hr by agar streak dilution method
Type: functional
test parameters: MTCC 109, 24 h
readout type: MIC
Please report the result as a number followed by the unit.

Some solved cases for reference:
- CN(C)c1nc(Nc2ccc(C#N)cc2)nc(Oc2cc(=O)n(C)c3ccccc23)n1: 50 µg/mL
- Cn1c(=O)cc(Oc2nc(NCCO)nc(Nc3ccc(C#N)cc3)n2)c2ccccc21: 50 µg/mL
- CCN(CC)c1nc(Nc2ccc(C#N)cc2)nc(Oc2cc(=O)n(C)c3ccccc23)n1: 50 µg/mL

Req: Note MIC for the compound shown: Cn1c(=O)cc(Oc2nc(NCCCl)nc(Nc3ccc(C#N)cc3)n2)c2ccccc21
Resp: 50 µg/mL

Req: Identify the reported MIC for the following entry. Cn1c(=O)cc(Oc2nc(NCC(=O)O)nc(Nc3ccc(C#N)cc3)n2)c2ccccc21
Resp: 50 µg/mL

Req: # return recorded MIC for entry CC(C)Nc1nc(Nc2ccc(C#N)cc2)nc(Oc2cc(=O)n(C)c3ccccc23)n1
Resp: 50 µg/mL

###

Test system: Salmonella typhi
test description: Antibacterial activity against Salmonella enterica subsp. enterica serovar Typhi MTCC 733 after 24 hr by paper disk diffusion method
Type: functional
Listed here: items and their measured inhibition zone (IZ).

- Cn1c(=O)cc(Oc2nc(NCCCl)nc(Nc3ccc(C#N)cc3)n2)c2ccccc21: 13 mm
- CCN(CC)c1nc(Nc2ccc(C#N)cc2)nc(Oc2cc(=O)n(C)c3ccccc23)n1: 10 mm
- Cn1c(=O)cc(Oc2nc(NCC(=O)O)nc(Nc3ccc(C#N)cc3)n2)c2ccccc21: 8 mm
- CCOC(=O)CNc1nc(Nc2ccc(C#N)cc2)nc(Oc2cc(=O)n(C)c3ccccc23)n1: 8 mm
- CN(C)c1nc(Nc2ccc(C#N)cc2)nc(Oc2cc(=O)n(C)c3ccccc23)n1: 7 mm

Req: # return recorded inhibition zone (IZ) for entry CC(C)Nc1nc(Nc2ccc(C#N)cc2)nc(Oc2cc(=O)n(C)c3ccccc23)n1
Resp: 6 mm

Req: Report inhibition zone (IZ) for Cn1c(=O)cc(Oc2nc(Nc3ccc(C#N)cc3)nc(NC3CCCCC3)n2)c2ccccc21
Resp: <5 mm

Req: Find the measured inhibition zone (IZ) of Cn1c(=O)cc(Oc2nc(NCCc3cccs3)nc(Nc3ccc(C#N)cc3)n2)c2ccccc21 and report it.
Resp: 12 mm

Req: Give inhibition zone (IZ) for the following compound: CCNc1nc(Nc2ccc(C#N)cc2)nc(Oc2cc(=O)n(C)c3ccccc23)n1
Resp: 9 mm

Req: State its inhibition zone (IZ): CNc1nc(Nc2ccc(C#N)cc2)nc(Oc2cc(=O)n(C)c3ccccc23)n1
Resp: <5 mm

###

Test system: Klebsiella pneumoniae
test description: Antibacterial activity against Klebsiella pneumoniae MTCC 109 after 24 hr by agar streak dilution method
Format: functional
test parameters: MTCC 109, 24 h
readout type: MIC (µg/mL)
The figure you give is taken to be in µg/mL; do not add the unit.

Below, 6 molecules whose answers are already recorded.
• CCOC(=O)CNc1nc(Nc2ccc(C#N)cc2)nc(Oc2cc(=O)n(C)c3ccccc23)n1 = 50
• CNc1nc(Nc2ccc(C#N)cc2)nc(Oc2cc(=O)n(C)c3ccccc23)n1 = 50
• Cn1c(=O)cc(Oc2nc(NCc3ccccc3)nc(Nc3ccc(C#N)cc3)n2)c2ccccc21 = 12.5
• Cn1c(=O)cc(Oc2nc(Nc3ccc(C#N)cc3)nc(NC3CCCCC3)n2)c2ccccc21 = 12.5
• CCCCNc1nc(Nc2ccc(C#N)cc2)nc(Oc2cc(=O)n(C)c3ccccc23)n1 = 50
• CCNc1nc(Nc2ccc(C#N)cc2)nc(Oc2cc(=O)n(C)c3ccccc23)n1 = 50

Continue with the next molecule.
Req: Answer with the recorded MIC for the molecule listed here: Cn1c(=O)cc(Oc2nc(Nc3ccc(C#N)cc3)nc(NC3CC3)n2)c2ccccc21
Resp: 25
